Could you please report measured pKi for the items listed next?
Experimental target: T1, MMP14 catalytic domain (MMP14CAT, residues 112-292) (human, UniProt P50281 112-292, conjugated to DyLight-488 for the yeast display sorting and flow cytometry)
T1 construct: human MMP14 catalytic domain, residues 112-292; In the functional rows the MMP14 of the cells (endogenous in U87MG, or pCMV MMP14 in MCF-7) is meant; source: E. coli BL-21 (DE3), pET3a, purified as previously described
Assay method text: enzyme inhibition assay (fluorogenic substrate, fit to Morrison's tight binding equation); 0.0075 nM MMP14CAT or MMP9CAT (MMP1CAT, MMP10CAT: concentration not stated) incubated with 0.4-25 nM or 1.5-500 nM inhibitor for 1 h at 37 C in TCNB buffer (50 mM Tris-HCl pH 7.5, 100 mM NaCl, 5 mM CaCl2, 0.05% Brij), then 15 uM Mca-Pro-Leu-Gly-Leu-Dpa-Ala-Arg-NH2; Ki from the apparent Ki; mean of three experiments
Particulars: both partners purified
Field pKi (float): negative decimal logarithm of the concentration in molar.

For N-TIMP2WT, wild type N-terminal domain of the tissue inhibitor of metalloproteinase-2, soluble form (domain or fragment, UniProt P16035 27-153, looked up, limits worked out from the printed primers (forward primer encodes CSCSP, reverse primer ends at YQMGCE); also called wild-type N-TIMP-2; source: P. pastoris X33 (pPICZalphaA), secreted, purified (Ni-NTA, Superdex 75 SEC)) CSCSPVHPQQAFCNADVVIRAKAVSEKEVDSGNDIYGNPIKRIQYEIKQIKMFKGPEKDIEFIYTAPSSAVCGVSLDVGGKKEYLIAGKAEGDGKMHITLCDFIVPWDTLSTTQKKSLNHRYQMGCE the binder record lists pKi as 8.30

For N-TIMP2_(9_1), soluble form (designed binder, limits worked out from the printed primers (forward primer encodes CSCP, reverse primer ends at YQMGCE); source: P. pastoris X33 (pPICZalphaA), secreted, purified (Ni-NTA, Superdex 75 SEC)) CSCPPVHPQQAFCNADVVIRAKAVSEKEVDSGNDPYGWPIKRIQYEIKQIKMFKGPEKDIEFIYTAPNSAICGVSLDVGGKKEYLIAGKAEGDGKMMIKLCDFIVPWDTLSTTQKKSLNHRYQMGCE the binder record lists pKi as 6.62

For N-TIMP2_(14_17), soluble form (designed binder, limits worked out from the printed primers (forward primer encodes CSCD, reverse primer ends at YQMGCE); source: P. pastoris X33 (pPICZalphaA), secreted, purified (Ni-NTA, Superdex 75 SEC)) CSCDPVHPQQAFCNADVVIRAKAVSEKEVDSGNDLYGSPIKRIQYEIKQIKMFKGPEKDIEFIYTAPDSASCGVSLDVGGKKEYLIAGKAEGDGKMSIFLCDFIVPWDTLSTTQKKSLNHRYQMGCE the binder record lists pKi as 10.52

For N-TIMP2_(14_18), soluble form (designed binder, limits worked out from the printed primers (forward primer encodes CSCK, reverse primer ends at YQMGCE); also called N-TMP2_(14_18); source: P. pastoris X33 (pPICZalphaA), secreted, purified (Ni-NTA, Superdex 75 SEC)) CSCKPVHPQQAFCNADVVIRAKAVSEKEVDSGNDLYGFPIKRIQYEIKQIKMFKGPEKDIEFIYTAPFSAVCGVSLDVGGKKEYLIAGKAEGDGKMEITLCDFIVPWDTLSTTQKKSLNHRYQMGCE the binder record lists pKi as 10.62

For N-TIMP2_(9_13), soluble form (designed binder, limits worked out from the printed primers (forward primer encodes CSCP, reverse primer ends at YQMGCE); source: P. pastoris X33 (pPICZalphaA), secreted, purified (Ni-NTA, Superdex 75 SEC)) CSCPPVHPQQAFCNADVVIRAKAVSEKEVDSGNDPYGWPIKRIQYEIKQIKMFKGPEKDIEFIYTAPNSAVCGVSLDVGGKKEYLIAGKAEGDGKMKIKLCDFIVPWDTLSTTQKKSLNHRYQMGCE the binder record lists pKi as 6.08
